System: MC116;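 also: growth inhibition of MC116 cells, read out with a cell viability assay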
ASSAY_NOTES: cells
Assay type: functional, cell-based, Homo sapiens
ASSAY_CONDITIONS: Homo sapiens, MC116
Description: SANGER: Inhibition of human MC116 cell growth in a cell viability assay.

{"CHEMICAL_STRING": "Cc1ccc(NC(=O)c2ccc(CN3CCN(C)CC3)cc2)cc1Nc1nccc(-c2cccnc2)n1", "IC50": "> 2000 nM"}
{"CHEMICAL_STRING": "C[C@@H](Oc1cc(-c2cnn(C3CCNCC3)c2)cnc1N)c1c(Cl)ccc(F)c1Cl", "IC50": "> 2000 nM"}
{"CHEMICAL_STRING": "COc1ccc(-c2cc3nccn3c(Nc3ncccc3C(N)=O)n2)cc1OC", "IC50": "2510 nM"}
{"CHEMICAL_STRING": "NC1(c2ccc(-c3nc4ccn5c(=O)[nH]nc5c4cc3-c3ccccc3)cc2)CCC1", "IC50": "> 4000 nM"}
{"CHEMICAL_STRING": "CS(=O)(=O)N1CCN(Cc2cc3nc(-c4cccc5[nH]ncc45)nc(N4CCOCC4)c3s2)CC1", "IC50": "> 4000 nM"}
{"CHEMICAL_STRING": "CN(NC(=O)CC(=O)NN(C)C(=S)c1ccccc1)C(=S)c1ccccc1", "IC50": "> 200 nM"}
{"CHEMICAL_STRING": "CC1(C)CCC(c2ccc(Cl)cc2)=C(CN2CCN(c3ccc(C(=O)NS(=O)(=O)c4ccc(N[C@H](CCN5CCOCC5)CSc5ccccc5)c(S(=O)(=O)C(F)(F)F)c4)cc3)CC2)C1", "IC50": "> 2000 nM"}

###

The entries below come with measured IC50 values attached.
Test system: HCE-4;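 also: cell viability assay measuring inhibition of growth in the human HCE-4 cell line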
ASSAY_NOTES: cells
Assay type: functional, cell-based
ASSAY_CONDITIONS: Homo sapiens
Description: SANGER: Inhibition of human HCE-4 cell growth in a cell viability assay.

{"CHEMICAL_STRING": "Cc1ccc(-n2nc(C(C)(C)C)cc2NC(=O)Nc2ccc(OCCN3CCOCC3)c3ccccc23)cc1", "ASSAY_TARGET": "HCE-4", "IC50": "> 10 µM"}
{"CHEMICAL_STRING": "NC1(c2ccc(-c3nc4ccn5c(=O)[nH]nc5c4cc3-c3ccccc3)cc2)CCC1", "ASSAY_TARGET": "HCE-4", "IC50": "> 4 µM"}
{"CHEMICAL_STRING": "COc1ccc(N(C(=O)Oc2c(C)cccc2C)c2ccnc(Nc3ccc(N4CCN(C)CC4)cc3)n2)c(OC)c1", "ASSAY_TARGET": "HCE-4", "IC50": "> 5.12 µM"}

###

Tested on: JVM-2;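 also: growth inhibition of JVM-2 cells determined by a cell viability assay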
ASSAY_NOTES: cells
Assay type: functional, cell-based, Homo sapiens
ASSAY_CONDITIONS: Homo sapiens, JVM-2
Description: SANGER: Inhibition of human JVM-2 cell growth in a cell viability assay.

{"COMPOUND": "C[C@@H](Oc1cc(-c2cnn(C3CCNCC3)c2)cnc1N)c1c(Cl)ccc(F)c1Cl [CRIZOTINIB]", "IC50": "> 2 µM"}
{"COMPOUND": "Cc1ccc(NC(=O)c2ccc(CN3CCN(C)CC3)cc2)cc1Nc1nccc(-c2cccnc2)n1 [IMATINIB]", "IC50": "> 2 µM"}
{"COMPOUND": "O=C1NC(=O)c2c1c(-c1ccccc1Cl)cc1[nH]c3ccc(O)cc3c21", "IC50": "> 2 µM"}

###

Test system: C32;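 also: cell viability assay, with IC50 reflecting inhibition of C32 cell growth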
ASSAY_NOTES: cells
Format: functional, cell-based
ASSAY_CONDITIONS: Homo sapiens
Description: SANGER: Inhibition of human C32 cell growth in a cell viability assay.
# IC50 annotations

{"CHEMICAL_STRING": "NC1(c2ccc(-c3nc4ccn5c(=O)[nH]nc5c4cc3-c3ccccc3)cc2)CCC1", "ASSAY_TARGET": "C32", "IC50": "> 4 µM"}
{"CHEMICAL_STRING": "OC[C@H](Cc1ccccc1)Nc1nc(Oc2ccc3c(c2)CCC3)nc2c1ncn2Cc1ccc(-c2ccccc2)cc1", "ASSAY_TARGET": "C32", "IC50": "> 10.2 µM"}
{"CHEMICAL_STRING": "COC(=O)[C@H](CCSC)NC(=O)c1ccc(NC[C@@H](N)CS)cc1-c1ccccc1", "ASSAY_TARGET": "C32", "IC50": "> 1.02 µM"}

###

As shown below, each of these molecules has a reported pIC50 value.
Test system: LU-134-A
ASSAY_NOTES: cells
Format: functional, cell-based, Homo sapiens
ASSAY_CONDITIONS: Homo sapiens, LU-134-A
Description: SANGER: Inhibition of human LU-134-A cell growth in a cell viability assay.
pIC50: −log10 of the molar value.

{"MOLECULE": "Cc1ccc(C(=O)Nc2ccc(CN3CCN(C)CC3)c(C(F)(F)F)c2)cc1C#Cc1cnc2cccnn12", "pIC50": "< 6.29"}
{"MOLECULE": "CCCCCCCCCCCC1=C(O)C(=O)C=C(O)C1=O", "pIC50": "< 4.49"}
{"MOLECULE": "C=CC(=O)N1CCCC(Nc2nc(Nc3ccc(N(C)C(=O)CC)cc3)nc3[nH]cnc23)C1 (stereo unspecified)", "pIC50": "< 4.99"}
{"MOLECULE": "CS(=O)(=O)N1CCN(Cc2cc3nc(-c4cccc5[nH]ncc45)nc(N4CCOCC4)c3s2)CC1", "pIC50": "< 5.40"}
{"MOLECULE": "COC(=O)[C@H](CCSC)NC(=O)c1ccc(NC[C@@H](N)CS)cc1-c1ccccc1", "pIC50": "< 5.99"}
{"MOLECULE": "O=S(=O)(O)c1ccc2cc(/N=N/c3cc(S(=O)(=O)O)c4cccnc4c3O)ccc2c1", "pIC50": "< 4.80"}

###

Reported pIC50 is given for each of the following molecules.
System: IPC-298
ASSAY_NOTES: SANGER: Inhibition of human IPC-298 cell growth in a cell viability assay.
Type: functional, cell-based
pIC50: −log10 of the molar value.

{"MOLECULE": "CO[C@@H]1[C@H](N(C)C(=O)c2ccccc2)C[C@H]2O[C@]1(C)n1c3ccccc3c3c4c(c5c6ccccc6n2c5c31)C(=O)NC4 [MIDOSTAURIN]", "pIC50": "< 6.29"}
{"MOLECULE": "Cc1ccc(C(=O)Nc2ccc(CN3CCN(C)CC3)c(C(F)(F)F)c2)cc1C#Cc1cnc2cccnn12 [PONATINIB]", "pIC50": "< 6.29"}
{"MOLECULE": "COc1ccc(-c2cc3nccn3c(Nc3ncccc3C(N)=O)n2)cc1OC", "pIC50": "< 5.10"}

###

Test system: A-431;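 also: growth inhibition of A-431 cells, determined with a cell viability read-out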
ASSAY_NOTES: cells
Type: functional, cell-based
ASSAY_CONDITIONS: Homo sapiens
Description: SANGER: Inhibition of human A431 cell growth in a cell viability assay.

{"MOLECULE": "NC(=O)c1ccc(N(C(N)=O)c2c(F)cccc2F)nc1-c1ccc(F)cc1F [VX-702]", "IC50": "> 2000 nM"}
{"MOLECULE": "Cc1ccc(-n2nc(C(C)(C)C)cc2NC(=O)Nc2ccc(OCCN3CCOCC3)c3ccccc23)cc1 [DORAMAPIMOD]", "IC50": "> 10000 nM"}
{"MOLECULE": "Cc1ccc(C(=O)Nc2ccc(CN3CCN(C)CC3)c(C(F)(F)F)c2)cc1C#Cc1cnc2cccnn12 [PONATINIB]", "IC50": "> 512 nM"}

###

Test system: HCC70;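 also: cell viability assay measuring how strongly the compound suppresses proliferation of HCC70 cells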
ASSAY_NOTES: cells
Type: functional, cell-based
ASSAY_CONDITIONS: Homo sapiens
Description: SANGER: Inhibition of human HCC70 cell growth in a cell viability assay.
MEASURED_PARAMETER: IC50

{"CHEMICAL_STRING": "O=C(NCCCNc1nc(Nc2cccc(NC(=O)N3CCCC3)c2)ncc1I)c1cccs1", "MEASURED_PARAMETER": "IC50", "RESULT": "> 5 µM"}
{"CHEMICAL_STRING": "CN(C)CCOc1ccc(-c2nc(-c3ccncc3)c(-c3ccc4c(c3)CC/C4=N\\O)[nH]2)cc1", "MEASURED_PARAMETER": "IC50", "RESULT": "> 5 µM"}
{"CHEMICAL_STRING": "COC(=O)[C@H](CCSC)NC(=O)c1ccc(NC[C@@H](N)CS)cc1-c1ccccc1", "MEASURED_PARAMETER": "IC50", "RESULT": "> 1.02 µM"}

###

Test system: T98G;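 also: growth inhibition of T98G cells, read out by a cell viability assay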
ASSAY_NOTES: cells
Type: functional, cell-based
ASSAY_CONDITIONS: Homo sapiens
Description: SANGER: Inhibition of human T98G cell growth in a cell viability assay.
MEASURED_PARAMETER: IC50

{"CHEMICAL_STRING": "O=S(=O)(O)c1ccc2cc(/N=N/c3cc(S(=O)(=O)O)c4cccnc4c3O)ccc2c1", "MEASURED_PARAMETER": "IC50", "RESULT": "> 16 µM"}
{"CHEMICAL_STRING": "CC1=C(/C=C/C(C)=C/C=C/C(C)=C/C(=O)O)C(C)(C)CCC1", "MEASURED_PARAMETER": "IC50", "RESULT": "> 10 µM"}
{"CHEMICAL_STRING": "NC(=O)c1ccc(N(C(N)=O)c2c(F)cccc2F)nc1-c1ccc(F)cc1F", "MEASURED_PARAMETER": "IC50", "RESULT": "> 2 µM"}
